Give measured abundance fitness for each item. Keep answers brief.
B1: Connector enhancer of kinase suppressor of ras 2, residues 9 to 71; numbered along this chain, Q8WXI2 (parent)
chain: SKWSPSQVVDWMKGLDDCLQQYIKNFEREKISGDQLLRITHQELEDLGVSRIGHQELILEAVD

Variants of: B1
assay.protocol: abundance fitness (aPCA) (normalised: wild type 0, dead -1); higher = more abundant; growth selection in yeast, the domain comes from the species named
setup.conditions: Homo sapiens
Number, no unit, nothing else.

**Query** I'd like to know its abundance fitness. The variant in question is I39T
**Result** -0.455

**Query** I'd like to know its abundance fitness. The variant in question is K13W
**Result** -0.339

**Query** I'd like to know its abundance fitness. The variant in question is Q55T
**Result** -0.598
